B1: Segment polarity protein dishevelled homolog DVL-3, residues 2 to 81; numbered along this chain, Q92997 (parent)
chain: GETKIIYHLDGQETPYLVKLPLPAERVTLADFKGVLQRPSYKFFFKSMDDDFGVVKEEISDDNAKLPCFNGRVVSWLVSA

Variants of: B1
Assay: abundance fitness (aPCA) (normalised: wild type 0, dead -1); higher = more abundant; growth selection in yeast, the domain comes from the species named
Details: Homo sapiens
endpoint-name: abundance fitness

> print(dat)
                            ordered.residues  obs.value
 1  GETKIIYHLDGQETPYLVKLPLPAERVTLADFKGVLQRPSYKFFFKSMDDDFGVVKEEISHDNAKLPCFNGRVVSWLVSA [D61H]     -0.695
 2  GETKIIYHLDGQETPYLVKLPLPAERVTLADFKGVLQRPSYKFFFKSMDDDFGVVKEEISDDNAKLPCFNGRVCSWLVSA [V74C]     -0.658
 3  GETKIIYHLDGQETPYLVKLPLPAERVTLADFKGVLQRPSYKFFFKSMDDDFGVVKEEPSDDNAKLPCFNGRVVSWLVSA [I59P]     -0.777
 4  GETKIIYHLDGQETPYLVKLPLPAERVTLADFKGVLQRPSYKFFTKSMDDDFGVVKEEISDDNAKLPCFNGRVVSWLVSA [F45T]     -0.596
 5  GETKIIYHLDGQETPYLVKLPLPAERVTLADFKGVLQRPSYKFFFKSMDDDFGVVKEEISDDNAKLPCYNGRVVSWLVSA [F69Y]      0.061
 6  GETKIIYHLDGQETPYLVKLPLPAERVTLADFKGVLQRPSYKFFFKSMDDDFGVVKTEISDDNAKLPCFNGRVVSWLVSA [E57T]      0.441
 7  GETKIIYHLDGQETPYLVKLPLPAERVTLADFKGVLQRPSYKFFFKSMDDDFGVVKEEISDDNAKLPCFNGSVVSWLVSA [R72S]      0.149
 8  GETKIIYHLDGQETPYLVKLPLPAERVTLADFIGVLQRPSYKFFFKSMDDDFGVVKEEISDDNAKLPCFNGRVVSWLVSA [K33I]     -0.939
 9  GETKIIYHLDGQETPYLVKLPLPAERVTLADFKGVLQRPSYKFFFKSMDDDFGVVKEEISDDNAKLPCFNGRVVSWVVSA [L77V]     -0.064
10  GETKIIYHLDGQETPYLVKLPLPVERVTLADFKGVLQRPSYKFFFKSMDDDFGVVKEEISDDNAKLPCFNGRVVSWLVSA [A24V]      -0.42
11  GETKIIYHLDGQETPYLVKLPLPAERVTLADFKGVLQRPSYKFFFKSADDDFGVVKEEISDDNAKLPCFNGRVVSWLVSA [M48A]      0.287
12  GETKIIYHLDGQETPYLVKLPLPAERVTLADFKGVLQRPSYYFFFKSMDDDFGVVKEEISDDNAKLPCFNGRVVSWLVSA [K42Y]     -0.957
13  GETKIIYHLDGQETPYLVKLPLPAERVTLADFKGVLQRPSYKFFFKSMDDDFGVVKEDISDDNAKLPCFNGRVVSWLVSA [E58D]     -0.942
14  GETKIIYHLDGQETPYLVKLPLPAERVTLADFKGVLQRPSYKFFFKSMDDDFGVVKEEISDDNAKLPCFNQRVVSWLVSA [G71Q]     -0.763
15  GETKIIYHLDGQETPYLVKLPLPAERVTLADFKGVLQRPQYKFFFKSMDDDFGVVKEEISDDNAKLPCFNGRVVSWLVSA [S40Q]      0.004
16  GETKIIYHLDGQETPYLVKLPLPAERVTQADFKGVLQRPSYKFFFKSMDDDFGVVKEEISDDNAKLPCFNGRVVSWLVSA [L29Q]      -0.91
17  GETKIIYHLDGQETPYLVKLPLPAERVTLADFKGVLQRPSYKFFFKSMDDDFGCVKEEISDDNAKLPCFNGRVVSWLVSA [V54C]       0.01
18  GETKIIYHLDGQETPYLVKLPLPAERVTLADFKGVLQRPSYKFFFKSMDDDFGVVKMEISDDNAKLPCFNGRVVSWLVSA [E57M]      0.292
19  GETKIIYHLDGQETPYLVKLPLPAERVTLADFKGVLQRPSYKFFFKSMDGDFGVVKEEISDDNAKLPCFNGRVVSWLVSA [D50G]      0.069
20  GETKIIYHLDGQETPYLVKLPLPAERVTLADFKGVLQRPSYKFFFKSMDDDFGVVKEEISDTNAKLPCFNGRVVSWLVSA [D62T]     -0.906
21  GETKIIYHLDGQETPYLVKLPLPAERVTDADFKGVLQRPSYKFFFKSMDDDFGVVKEEISDDNAKLPCFNGRVVSWLVSA [L29D]      -0.97
22  GETKIIYHLDGQETPYLVKLPLPAERVTLADFKGVLQRPSYKFFFKSMDDDFGVVKEEISDDNAKLPCFNGRVWSWLVSA [V74W]     -0.243
23  GETKIIYHLDGQETPYLVKLPLPAERVTLADFKGVHQRPSYKFFFKSMDDDFGVVKEEISDDNAKLPCFNGRVVSWLVSA [L36H]     -0.988
24  GETKIIYHLDGQETPYLVKLPLPAERVTLADFKGELQRPSYKFFFKSMDDDFGVVKEEISDDNAKLPCFNGRVVSWLVSA [V35E]     -0.468
25  GETKIIYHLDGQETPYLVKLPLPAERVTLADTKGVLQRPSYKFFFKSMDDDFGVVKEEISDDNAKLPCFNGRVVSWLVSA [F32T]     -0.598
26  GETKIIYHLDGQETPYLVKLPLPAERVTLADFKGVLQRPMYKFFFKSMDDDFGVVKEEISDDNAKLPCFNGRVVSWLVSA [S40M]      0.098
27  GETKIIYHLDGQETPYLVKLPLPAERVTLADDKGVLQRPSYKFFFKSMDDDFGVVKEEISDDNAKLPCFNGRVVSWLVSA [F32D]     -0.688
28  GETKIIYHLDGQETPYLVKLPLPAERVTLADFKGVLQRPSYKFFFKSMDDDFGVVKEEYSDDNAKLPCFNGRVVSWLVSA [I59Y]     -0.655
29  GETKIIYHLDGQETPYLVKLPLPAERVTLADFKGVLQRPSYKFFFKSMDDDFGVVKEEISDDNAKNPCFNGRVVSWLVSA [L66N]     -0.825
30  GETKIIYHLDGQETPYLVKLPLHAERVTLADFKGVLQRPSYKFFFKSMDDDFGVVKEEISDDNAKLPCFNGRVVSWLVSA [P23H]      -0.55
31  GETKIIYHLDGQETPYLVKLRLPAERVTLADFKGVLQRPSYKFFFKSMDDDFGVVKEEISDDNAKLPCFNGRVVSWLVSA [P21R]     -0.575
32  GETKIIYHLDGQETPYLVKLPLPAERVTLADFKGVLQRPSYKFFFKSMDDDFGVVKEEISDDNAKLPCFNGRRVSWLVSA [V73R]     -0.592
33  GETKIIYHLDGQETPYLVKLPLPAERVTLADFKGVLQRPSYKFFFKSMKDDFGVVKEEISDDNAKLPCFNGRVVSWLVSA [D49K]      0.203
34  GETKIIYHLDGQETPYLVKLPLPAERVTLADFKGVLQRPSYKFFFKSMDDDFGVVKEEISDDHAKLPCFNGRVVSWLVSA [N63H]     -0.093
35  GETKIIYHLDGQETPYLVKLPLPAERVTLADFKGVLQRPSYKFFFKSMDDDFGVVKEEISDDNAKLPCFNGRVVSPLVSA [W76P]     -0.625
36  GETKIIYHLDGQETPYLVQLPLPAERVTLADFKGVLQRPSYKFFFKSMDDDFGVVKEEISDDNAKLPCFNGRVVSWLVSA [K19Q]     -0.297
37  GETKIIYHLDGQETPYLVKLPLPAERVTLADFKGVLQRPSYKFFFKSMDDDFGVVKEEISDDNAKLPLFNGRVVSWLVSA [C68L]      0.061
38  GETKIIYHLDGQETPYLVKLPLKAERVTLADFKGVLQRPSYKFFFKSMDDDFGVVKEEISDDNAKLPCFNGRVVSWLVSA [P23K]     -0.671
39  GETKIIYHLDGQETPYLVKLPLPAERVGLADFKGVLQRPSYKFFFKSMDDDFGVVKEEISDDNAKLPCFNGRVVSWLVSA [T28G]     -0.597
40  GETKIIYHLDGQETPYLVKLPLPAERVTLADFKGVLQRPSYMFFFKSMDDDFGVVKEEISDDNAKLPCFNGRVVSWLVSA [K42M]     -0.659
41  GETKIIYHLDGQETPYLVKLPLPAERVTLADFKGVLQRPSYKFFFKSMTDDFGVVKEEISDDNAKLPCFNGRVVSWLVSA [D49T]      0.111
